- Assay Protocol: Primary qHTS for inhibitors of nuclear receptor binding SET domain protein 2 (NSD2) in an isogenic RCH-ACV NSD2 p.E1099K mutant (9B) (AID 1645876); further: nearly all actives have a fitted effect of over 70% in size; further: potency means the concentration at half of the fitted maximal effect
- Experimental Parameters: RCH-ACV (leukaemia line) NSD2 E1099K (9B) viability, CellTiter-Glo, 72 h; series mostly up to 44.9 µM
Records with an inconclusive call do not appear. Calls of active or inactive are those of the source. The call rests on the fitted dose curve; in most records, active means well fitted inhibition curve with a large enough effect; inconclusive means small, poorly fitted or top-dose-only effect; inactive means flat fitted curve, though single readings scatter.
Test Readout: Potency

Recorded Potency, per entry:
* C=C(C)C1CCC2(C(=O)O)CCC3(C(=O)O)C(CCC4C5(C)CCC(O)C(C)(C(=O)O)C5CCC43C)C12 (configuration not stated) | inactive
* COc1ccccc1NC(=O)OCC1CCN(C(=O)OC(C)(C)C)CC1 | inactive
* COc1ccc(C2(O)c3ccccc3NC(=O)C2O)cc1 (configuration not stated) | inactive
* CCCC(=O)NCCc1csc(-c2ccc(Cl)cc2)n1 | 12.9 µM (active)
* O=C(CN1C(=O)C2(CCCC2)NCC1c1cc(F)cc(F)c1)Nc1ccc2c(c1)CC1(C2)C(=O)Nc2ncccc21 (configuration not stated) | inactive

Q: Item under review: O=C1NC(=O)C(c2cn3c4c(cccc24)CCC3)C1c1c[nH]c2ccccc12 (configuration not stated) . Reported Potency?
Result: 1.03 µM (active)

Q: Item under review: Oc1ccc(CNc2ccccc2F)c2cccnc12 . Reported Potency?
Result: 12.9 µM (active)

* * *

- Test system: Tov-21-G
- Assay Protocol: Primary qHTS to identify gynecologic anti-cancer compounds using libraries of approved drugs and bioactive compounds (AID 1345084); further: on the % scale 0 is the no-effect control and ±100 the full control effect; nearly all actives have a fitted effect of over 55% in size
- Experimental Parameters: Gynecologic cancer cell panel viability, ATPlite luminescence, 48 h; series mostly up to 57.5 µM
Records with an inconclusive call do not appear. The source made the active and inactive calls. Calls follow the shape of the dose curve; as a rule, active = well fitted cell-killing curve with a large enough effect; inconclusive = small, poorly fitted or top-dose-only effect, or effect the other way; inactive = flat fitted curve, though single readings scatter. *1 amine or outer side, *2 acyl side, *3 side chain or, on linkers, in order; H or OH if unused. Where a SMILES comes first, the peptide text is derived from it. [ ]: non-standard residue; d: D form. X4 = CC(C)=CCc1cc(C(O)C(N[*:1])C(=O)[*:2])ccc1O
Test Readout: activity change, negative = cytotoxicity

- CC(C)=CCc1cc(C(O)C2NC(=O)CNC(=O)C(Cc3c[nH]c4ccccc34)NC(=O)C3CCCN3C(=O)CNC(=O)C(C(C)C)NC(=O)CNC2=O)ccc1O (stereo not drawn) (cyclo(G[X4]GVGPW); configuration not given here): -4.16% [at 11.6 µM] (inactive)
- CC1(C)CC[C@]2(C(=O)O[C@@H]3O[C@H](CO)[C@@H](O)[C@H](O)[C@H]3O)CC[C@]3(C)C(=CCC4[C@@]5(C)CC[C@H](O[C@@H]6O[C@H](C(=O)O)[C@@H](O)[C@H](O)[C@H]6O)[C@@](C)(CO)C5CC[C@]43C)C2C1 (stereo partly drawn): 2.2% [at 11.6 µM] (inactive)
- C[C@H](N)C(=O)N[C@@H](Cc1ccc(O)cc1)C(=O)N1CCC[C@H]1C(=O)NCC(=O)N[C@@H](CCCCN)C(=O)N[C@@H](Cc1ccccc1)C(N)=O: 1.95% [at 11.6 µM] (inactive)
- COC1CC(O[C@H]2CC[C@@]3(C)C(CCC4C3[C@H](OC(C)=O)[C@@H](OC(=O)/C=C/c3ccccc3)[C@]3(C)C(C(C)=O)CC[C@]43O)C2)OC(C)C1OC1CC(OC)C(OC2CC(OC)C(OC3OC(C)C(OC4OC(CO)C(O)C(O)C4O)C(OC)C3O)C(C)O2)C(C)O1 (stereo partly drawn): 6.44% [at 6.55 µM] (inactive)

Q: Item under review: C[C@@H]1O[C@@H](O[C@H]2[C@H](O)[C@@H](C(=O)O)O[C@@H](O[C@H]3CC[C@@]4(C)C(CC[C@]5(C)C4CC=C4C6CC(C)(C)CC[C@]6(C(=O)O)CC[C@]45C)C3(C)C)[C@@H]2O[C@@H]2OC[C@@H](O)[C@H](O)[C@H]2O)[C@H](O)[C@H](O)[C@H]1O (stereo partly drawn) . Reported activity change, negative = cytotoxicity?
Result: 13.2% [at 11.6 µM] (inactive)

Q: Item under review: COC1CC(O[C@H]2CC[C@@]3(C)C(=CC[C@]4(O)C3[C@H](OC(C)=O)[C@@H](OC(=O)c3ccccc3)[C@]3(C)[C@@H](C(C)=O)CC[C@@]34O)C2)OC(C)C1OC1CC(OC)C(OC2CC(OC)C(OC3OC(C)C(OC4OC(CO)C(O)C(O)C4O)C(OC)C3O)C(C)O2)C(C)O1 (stereo partly drawn) . Reported activity change, negative = cytotoxicity?
Result: -0.609% [at 6.55 µM] (inactive)

Q: Item under review: CC1OC(OCC2OC(OC3CCC4(C)C(CCC5(C)C4CC=C4C6CC(C)(C)CCC6(C(=O)OC6OC(CO)C(O)C(O)C6O)CCC45C)C3(C)CO)C(O)C(O)C2O)C(O)C(O)C1O (stereo not drawn) . Reported activity change, negative = cytotoxicity?
Result: 2.94% [at 11.6 µM] (inactive)

Q: Item under review: CC(=O)O[C@H]1[C@H](O[C@H]2[C@@H]3C=CO[C@@H](O[C@@H]4O[C@H](CO)[C@@H](O)[C@H](O)[C@H]4O)[C@@H]3[C@@]3(CO)O[C@@H]23)O[C@@H](C)[C@H](OC(=O)/C=C/c2ccccc2)[C@H]1OC(=O)/C=C/c1ccccc1 . Reported activity change, negative = cytotoxicity?
Result: -0.504% [at 11.6 µM] (inactive)
